System: 280 human cancer cell lines
EXPERIMENT_SUMMARY: OncoPanel cell proliferation assay (10-day)
Format: cell-based
RECORDED_CONDITIONS: Homo sapiens, OE19, OE19, Head and Neck; read-out: Cell Count IC50
QUANTITY: pIC50
Kindly note that pIC50 refers to -log10 of the concentration in mol/L and answer with the value alone.

MOLECULE: CC(C)=CCC[C@H](C)[C@@H]1CC[C@@H](C)c2c1cc(C)c(O)c2O [Compound 4, 7,8-dihydroxyserrulat-14-ene]
ASSAY_RESULT: 4.68

Quick one: pIC50 for CC(C)=CCC[C@H](CO)[C@@H]1CC[C@@H](C)c2c1cc(C)c(O)c2O [Compound 1, 7,8,18-trihydroxyserrulat-14-ene] ?
5.49
